measurement-target: Cereblon (CRBN) (Homo sapiens, UniProt Q96SW2)
protocol-text: TR-FRET displacement of Cy5-thalidomide from CRBN-DDB1
Assay type: binding
Design: 6xHis-CRBN-DDB1 complex; with DDB1
Sequence (Q96SW2 40-442): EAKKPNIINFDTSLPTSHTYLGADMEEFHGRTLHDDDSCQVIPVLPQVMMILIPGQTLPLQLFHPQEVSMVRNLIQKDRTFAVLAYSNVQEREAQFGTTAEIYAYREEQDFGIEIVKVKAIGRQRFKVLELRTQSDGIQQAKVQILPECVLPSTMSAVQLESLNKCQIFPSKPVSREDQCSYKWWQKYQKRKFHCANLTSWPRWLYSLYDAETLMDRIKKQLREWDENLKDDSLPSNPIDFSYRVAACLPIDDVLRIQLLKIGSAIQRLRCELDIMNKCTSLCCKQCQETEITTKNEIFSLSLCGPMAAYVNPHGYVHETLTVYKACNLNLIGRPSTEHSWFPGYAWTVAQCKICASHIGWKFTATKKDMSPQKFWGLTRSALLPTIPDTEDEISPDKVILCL
Sequence (Q16531 whole entry partner): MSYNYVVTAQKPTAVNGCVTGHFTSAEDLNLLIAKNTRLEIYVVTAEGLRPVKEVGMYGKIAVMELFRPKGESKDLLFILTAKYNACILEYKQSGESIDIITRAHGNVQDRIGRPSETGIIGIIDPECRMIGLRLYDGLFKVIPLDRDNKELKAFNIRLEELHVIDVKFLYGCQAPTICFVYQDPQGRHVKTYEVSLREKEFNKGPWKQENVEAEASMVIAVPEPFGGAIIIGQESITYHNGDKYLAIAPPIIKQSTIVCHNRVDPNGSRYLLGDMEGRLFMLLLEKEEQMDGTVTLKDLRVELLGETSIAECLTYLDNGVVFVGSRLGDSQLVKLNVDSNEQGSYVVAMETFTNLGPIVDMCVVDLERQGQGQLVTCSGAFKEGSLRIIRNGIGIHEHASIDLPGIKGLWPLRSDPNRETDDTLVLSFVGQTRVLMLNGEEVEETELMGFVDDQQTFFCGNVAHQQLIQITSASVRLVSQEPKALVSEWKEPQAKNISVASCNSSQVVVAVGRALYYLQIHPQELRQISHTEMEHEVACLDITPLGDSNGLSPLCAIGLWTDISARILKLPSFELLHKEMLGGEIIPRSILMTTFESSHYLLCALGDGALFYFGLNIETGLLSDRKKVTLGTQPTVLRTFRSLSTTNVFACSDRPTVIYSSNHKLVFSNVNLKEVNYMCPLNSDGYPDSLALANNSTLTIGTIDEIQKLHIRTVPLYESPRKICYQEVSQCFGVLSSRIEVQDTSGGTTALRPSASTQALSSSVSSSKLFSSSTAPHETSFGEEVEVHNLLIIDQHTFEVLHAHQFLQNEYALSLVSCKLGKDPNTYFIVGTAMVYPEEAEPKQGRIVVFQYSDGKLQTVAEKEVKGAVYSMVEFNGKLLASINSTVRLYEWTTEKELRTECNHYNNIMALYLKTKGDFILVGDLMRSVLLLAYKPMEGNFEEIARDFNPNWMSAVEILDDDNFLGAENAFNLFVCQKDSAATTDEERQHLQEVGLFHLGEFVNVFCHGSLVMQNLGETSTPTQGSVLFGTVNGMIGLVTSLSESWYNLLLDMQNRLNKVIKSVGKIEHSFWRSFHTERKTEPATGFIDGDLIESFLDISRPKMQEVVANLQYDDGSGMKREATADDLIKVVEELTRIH
reported-property: IC50 (nM)
Respond with the bare value in nM.

Query: Field: IC50 (Cereblon (CRBN) (Homo sapiens, UniProt Q96SW2)). Entry: O=C1CCC(N2Cc3ccc(N4CCC5(CCN(Cc6ccccc6)CC5)C4)cc3C2=O)C(=O)N1 (stereo not shown)
Reply: 60

###

measurement-target: UniProt Q96SW2
protocol-text: cryo-EM structure ([…] Å and […] Å); TR-FRET thalidomide displacement (IC50); FIDA and SEC-MALS
Assay type: binding
Set-up: 6xHis-CRBN-DDB1 complex (per checker note), TR-FRET thalidomide displacement; not the cryo-EM CRBN 41-442/DDB1ΔBPB homodimer
reported-property: pIC50
// returns pIC50 (minus log10 of molar concentration), number only

Query: Item O=C1CCC(N2Cc3ccc(N4CCC5(CCN(C(=O)c6ccccc6)CC5)C4)cc3C2=O)C(=O)N1 (stereo not shown) has what recorded pIC50?
Reply: 7.85
